target or system: Peroxisome proliferator-activated receptor gamma (Homo sapiens) (UniProt P37231)
Sequence (P37231 whole entry, looked up): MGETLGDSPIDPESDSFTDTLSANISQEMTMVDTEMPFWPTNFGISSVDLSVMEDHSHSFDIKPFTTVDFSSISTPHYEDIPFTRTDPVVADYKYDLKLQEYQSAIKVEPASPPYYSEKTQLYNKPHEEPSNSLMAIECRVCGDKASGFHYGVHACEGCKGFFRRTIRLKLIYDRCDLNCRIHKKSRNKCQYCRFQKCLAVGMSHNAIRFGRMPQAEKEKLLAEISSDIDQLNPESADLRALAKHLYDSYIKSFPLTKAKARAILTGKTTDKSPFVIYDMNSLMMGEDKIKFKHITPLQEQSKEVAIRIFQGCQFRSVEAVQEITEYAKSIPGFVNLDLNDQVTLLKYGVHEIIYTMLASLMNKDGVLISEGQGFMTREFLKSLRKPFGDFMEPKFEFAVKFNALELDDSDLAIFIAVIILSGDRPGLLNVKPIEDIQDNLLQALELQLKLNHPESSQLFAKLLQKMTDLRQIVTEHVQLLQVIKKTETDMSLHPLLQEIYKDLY
assay: qHTS assay to identify small molecule antagonists of the peroxisome proliferator-activated receptor gamma (PPARg) signaling pathway (AID 743191); note: nearly all actives have a fitted effect of over 30% in size
experimental context: HEK293H PPARg-UAS-bla, beta-lactamase ratio, antagonist, 17 h; series mostly up to 62.6 µM
Records with an inconclusive call do not appear. Calls of active or inactive are those of the source. Calls come from the whole dose curve.
Select the matching outcome among Yes = active, No = inactive

>>> classification("O=C(O)CCCCCCC(=O)O")
"No"
>>> classification("CNC(=S)NN")
"No"
>>> classification("Cc1cn[nH]c1")
"No"
>>> classification("CCCCCCCCCCOCC(O)CN (stereo unspecified)")
"No"
>>> classification("NCCCCCCNCCCCCCN")
"No"

Now consider the entry below.
Dear all, I need the recorded test outcome for "CC1=C(/C=C/C(C)=C/C=C/C(C)=C/C(=O)Nc2ccc(O)cc2)C(C)(C)CCC1" , thank you.
Yes

----------
target or system: Bile acid receptor (Homo sapiens) (UniProt Q96RI1)
Sequence (Q96RI1 whole entry, looked up): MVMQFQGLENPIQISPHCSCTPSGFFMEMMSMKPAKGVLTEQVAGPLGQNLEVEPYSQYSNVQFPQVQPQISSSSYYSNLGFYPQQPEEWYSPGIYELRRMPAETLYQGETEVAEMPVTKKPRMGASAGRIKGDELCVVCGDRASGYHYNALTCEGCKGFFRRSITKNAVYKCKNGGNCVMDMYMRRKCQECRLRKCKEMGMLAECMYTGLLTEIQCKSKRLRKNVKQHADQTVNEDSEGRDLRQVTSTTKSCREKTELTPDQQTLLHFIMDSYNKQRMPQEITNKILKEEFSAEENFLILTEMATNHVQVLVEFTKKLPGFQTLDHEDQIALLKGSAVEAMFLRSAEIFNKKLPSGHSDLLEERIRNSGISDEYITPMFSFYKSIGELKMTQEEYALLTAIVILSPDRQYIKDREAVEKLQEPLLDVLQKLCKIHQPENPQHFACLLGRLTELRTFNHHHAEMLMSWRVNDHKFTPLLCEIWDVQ
assay: qHTS assay to identify small molecule agonists of the farnesoid-X-receptor (FXR) signaling pathway (AID 743220); note: % is set by controls: 0 for no effect and ±100 for the full control effect
experimental context: HEK293T FXR-UAS-bla, beta-lactamase FRET ratio, 16 h; series mostly up to 62.6 µM
Source text: National Center for Advancing Translational Sciences [NCATS] NIH Chemical Genomics Center [NCGC] U.S. Environmental Protection Agency [EPA] National Institutes of Environmental Health Sciences [NIEHS] National Toxicology Program [NTP] U.S. Food and Drug Administration [FDA] The farnesoid-X-receptor (FXR), a nuclear hormone receptor, is highly expressed in liver, intestine, kidney and adrenal cortex. Natural ligands of FXR are the bile acids (Cholic acid, Chenodeoxy cholic acid etc). […]
Inconclusive results are not listed. The source made the active and inactive calls. Calls come from the whole dose curve; as a rule, active = well fitted activation curve with a large enough effect in the signal ratio in the repeat runs (not every such curve was filed as active); inconclusive = weak or mixed curves, or effect the other way; inactive = flat fitted curve, though single readings scatter; the % refers to the signal ratio.
value kind: activation

>>> experimental_result("[O]=[Zr]")
"inactive"
>>> experimental_result("CNC(=O)c1cc(Oc2ccc(NC(=O)Nc3ccc(Cl)c(C(F)(F)F)c3)cc2)ccn1")
"inactive"
>>> experimental_result("O=Cc1ccc(F)cc1")
"inactive"
>>> experimental_result("COc1cccc(CCc2ccccc2OCC(CN(C)C)OC(=O)CCC(=O)O)c1 (stereo unspecified)")
"inactive"
>>> experimental_result("O=C1c2c(O)ccc(O)c2C(=O)c2c(NCCNCCO)ccc(NCCNCCO)c21")
"inactive"
>>> experimental_result("CC(NCCC(c1ccccc1)c1ccccc1)c1ccccc1 (stereo unspecified)")
"inactive"
>>> experimental_result("C=CC(=O)OCCC#N")
"inactive"
>>> experimental_result("CC(C)(c1cc(Br)c(O)c(Br)c1)c1cc(Br)c(O)c(Br)c1")
"inactive"
>>> experimental_result("Cc1cc(Nc2ccc(O)cc2)ccc1N")
"inactive"
>>> experimental_result("N[C@@H](CSSC[C@H](N)C(=O)O)C(=O)O")
"-0.652% [at 0.55 µM] (inactive)"

Hey, can you go through the list below and give me activation for every item?
1. S=P(N1CC1)(N1CC1)N1CC1
2. C[Si](C)(C)Cl
3. O=C(Nc1ccc(Cl)cc1)Nc1ccc(Cl)c(C(F)(F)F)c1
4. Cc1ccc(CCn2c3c(c4cc(Cl)ccc42)CN(C)CC3)cn1
5. CCN=c1cc2oc3cc(NCC)c(C)cc3c(-c3ccccc3C(=O)OCC)c-2cc1C
6. CC(C(O)c1ccccc1)N(C)CCOC(c1ccccc1)c1ccccc1 (stereo unspecified)
7. Cc1c(C)n(Cc2ccccc2)c2ccc(C(=O)OCCN(C)C)cc12

["inactive", "inactive", "inactive", "inactive", "inactive", "inactive", "inactive"]

Hey, can you go through the list below and give me activation for every item?
1. CC(C)(c1cc(Br)c(OCCO)c(Br)c1)c1cc(Br)c(OCCO)c(Br)c1
2. Cc1ccc(-n2[nH]c(C)c(N=Nc3cccc(-c4cccc(C(=O)O)c4)c3O)c2=O)cc1C
3. CCCCCCCOC(=O)c1ccc(O)cc1

1: inactive; 2: inactive; 3: inactive

Hey, can you go through the list below and give me activation for every item?
1. CCCCOc1ccc(C(=O)CCN2CCCCC2)cc1
2. CCCCCCCC/C=C\CCCCCCCC(=O)OCCOC(=O)CCCCCCC/C=C\CCCCCCCC

["inactive", "inactive"]
